- testedTarget: hERG potassium channel (Homo sapiens (Human), UniProt Q12809);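 note: Four-point series of 0.3, 3, 10 and 30 µM, two cells recorded per concentration, 5 min exposure at each level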
- Sequence (Q12809 whole entry): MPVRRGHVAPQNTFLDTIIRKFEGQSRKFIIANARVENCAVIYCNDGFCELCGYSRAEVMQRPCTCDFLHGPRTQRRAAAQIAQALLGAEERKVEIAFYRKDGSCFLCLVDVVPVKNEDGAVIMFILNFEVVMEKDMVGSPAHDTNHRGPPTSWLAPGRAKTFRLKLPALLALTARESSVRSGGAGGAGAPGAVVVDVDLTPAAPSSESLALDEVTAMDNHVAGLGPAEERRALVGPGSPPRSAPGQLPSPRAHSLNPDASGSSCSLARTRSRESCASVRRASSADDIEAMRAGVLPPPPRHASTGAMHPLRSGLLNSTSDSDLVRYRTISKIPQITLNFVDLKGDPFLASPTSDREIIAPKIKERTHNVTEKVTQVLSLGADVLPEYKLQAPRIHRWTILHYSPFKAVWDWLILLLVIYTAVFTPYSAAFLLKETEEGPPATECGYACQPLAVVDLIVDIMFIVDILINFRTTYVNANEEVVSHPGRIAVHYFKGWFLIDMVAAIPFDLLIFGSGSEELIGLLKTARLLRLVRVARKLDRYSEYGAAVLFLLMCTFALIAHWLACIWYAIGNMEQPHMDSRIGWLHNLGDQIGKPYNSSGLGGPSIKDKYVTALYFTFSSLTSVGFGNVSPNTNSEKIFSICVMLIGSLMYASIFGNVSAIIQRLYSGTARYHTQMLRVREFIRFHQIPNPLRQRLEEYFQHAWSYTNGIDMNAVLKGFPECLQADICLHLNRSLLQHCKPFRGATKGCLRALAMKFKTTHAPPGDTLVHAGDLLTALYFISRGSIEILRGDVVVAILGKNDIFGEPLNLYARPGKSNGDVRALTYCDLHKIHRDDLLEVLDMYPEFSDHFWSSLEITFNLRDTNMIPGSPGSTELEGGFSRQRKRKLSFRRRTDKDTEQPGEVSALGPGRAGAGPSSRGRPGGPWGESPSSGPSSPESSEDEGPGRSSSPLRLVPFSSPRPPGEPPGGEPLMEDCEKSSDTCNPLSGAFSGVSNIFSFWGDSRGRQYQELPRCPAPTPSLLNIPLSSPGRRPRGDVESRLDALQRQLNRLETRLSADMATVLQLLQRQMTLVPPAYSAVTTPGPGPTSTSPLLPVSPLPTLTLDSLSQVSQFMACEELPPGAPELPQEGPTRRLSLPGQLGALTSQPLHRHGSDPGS
- testSummary: in vitro
- conditionsUsed: Mean % hERG Inhibition
parameter: inhibition at 5 min, 3 µM (%)
// units = %; emit number, no label

Inquiry: Field: inhibition at 5 min, 3 µM (hERG potassium channel (Homo sapiens (Human), UniProt Q12809)). Entry: `C[C@@H](Cc1c(F)c(F)cc(F)c1F)Nc1cc[nH]c(=O)c1-c1nc2cc3c(cc2[nH]1)CN(CCN1CCCC1)C3=O`
Reply text: 49.4

====

- Test system: EML4-ALK C1156Y BaF3 cells
- testSummary: BaF3 stables cell viability (WST-1)
- conditionsUsed: Mus musculus, BaF3, read-out: BaF3 Stables IC50 nM C1156Y
parameter: IC50 (nM)
The figure you give is taken to be in nM; do not add the unit.

Inquiry: # value lookup — system EML4-ALK C1156Y BaF3 cells, readout IC50, item Cc1ccc(F)cc1C[C@H](C)Nc1cc[nH]c(=O)c1-c1nc2cc3c(cc2[nH]1)CN(CCN(C)C)C3=O (stereo in doubt)
Reply text: 90
